Where do the numbers come from? From PubChem BioAssay (NCI).

As shown below, each of these compounds has a reported growth value.
Tested on: NCI-H23 lung
Test name: NCI-60 one-dose screen, 48 h (100 = growth as untreated, 0 = no growth, -100 = all killed)
Experimental conditions: 10 µM unless noted
The panel holds about 83,000 compounds, 20% with a hit somewhere; the sample as a whole holds those more often.
Give just the number in %; leave the unit off.

CC(Nc1ncnc2ccc(-c3cnc4cnccn34)cc12)c1ccccc1 (stereo not given) : 54.8

Given the compound C/C(=C(/C)C1CC1CCNC1CCC(NC(=O)OC(C)(C)C)CC1)c1ccccc1 (stereo not given) , write its reported growth.
70.8

Given the compound Cc1ccc(CSC2=C(Cl)CN(c3ccc(Cl)cc3)C2=O)cc1 , write its reported growth.
105

Given the compound Cc1ccc(C)c(NC2=C(Cl)C(=O)c3nc(C)ccc3C2=O)c1 , write its reported growth.
-38

Given the compound CN1CCN(Cc2ccc(NC(=O)c3cncc(C#Cc4cnc5ccc(OCC(F)F)nn45)c3)cc2C(F)(F)F)CC1 , write its reported growth.
-51.2

###

System: DU-145 prostate
Test name: NCI-60 one-dose screen, 48 h (100 = growth as untreated, 0 = no growth, -100 = all killed)
Experimental conditions: 10 µM unless noted
Experimental: Cells are grown in 96 well plates and exposed to the test compound for 48 hours. Compounds are tested at a single concentration, which is 10^-5 M for most compounds. The reported endpoint is percent growth (GI% or GIPRCNT), where numbers from 0 - 100% represent growth inhibition, and numbers from -100% - 0 represent cell death. For example, a value of 40 represents 60% growth inhibition. A value of 0 means no net growth occurred over the course of the experiment. […]
This is part of a sample that, as a whole, favours compounds with a hit. Of some 83,000 tested, about 20% had one in any assay.
As shown below, each of these compounds has a reported growth value.
Give just the number in %; leave the unit off.

Illustrative cases are given below, each with its answer.
CC1(C)CC[C@]2(C(=O)NCCCCCCN(CCCN)CCCN)CC[C@]3(C)C(=CC[C@@H]4[C@@]5(C)CC[C@H](O)C(C)(C)[C@@H]5CC[C@]43C)[C@@H]2C1 : 107
CCOC(=O)c1ccccc1NC1=C(Cl)C(=O)c2nc(C)ccc2C1=O : 112
Cc1[nH]c(C(=O)Nc2ccccc2OCc2cccc(C(=O)NC3CCCNC3)c2)c(Cl)c1Cl (centres undefined) : -89

Shift focus to the following entry.
Jot down growth (DU-145 prostate) of CN1CCN(c2ccc(Nc3nc(NCCNS(=O)(=O)c4ccccc4)c4sccc4n3)cc2)CC1 .
106

###

Tested on: SNB-75 CNS
Test name: NCI-60 one-dose screen, 48 h (100 = growth as untreated, 0 = no growth, -100 = all killed)
Experimental conditions: 10 µM unless noted
About 83,000 compounds went through this panel and 20% of them were active in at least one assay; those are over-represented in the sample as a whole. The source made the active and inactive calls. Rule for the calls: active = growth percent below 10; inactive = the rest.
Quantity measured: growth

Illustrative cases are given below, each with its answer.
CS(=O)(=O)c1ccc(/C(=N/N=C(N)N)c2ccc(F)cc2)cc1 : 94.6% (inactive)
CN1CC[C@@H]2[C@@]3(C)CC[C@H](O)C(C)(C)[C@@H]3CC[C@@]2(C)[C@]2(C)CC[C@@]3(CO)CCC(C)(C)C[C@@H]3C12 (stereo partly drawn) : 87.7% (inactive)
O=C(CSc1nnc(-c2ccc(Cl)cc2)n1-c1ccccc1)Nc1ccccc1Cl : 65.8% (inactive)
COc1cc(NC(=O)Nc2cccc(-c3cc(=O)c4c(OC)c(OC)c(OC)cc4o3)c2)cc(OC)c1OC : -0.583% (active)
CN1CCN(CC#CCn2c3c(c4ccccc42)C[C@]2(C)[C@H]4CC=C5[C@@H]6CC(C)(C)CC[C@]6(C(=O)N6CCOCC6)CC[C@@]5(C)[C@]4(C)CC[C@H]2C3(C)C)CC1 : 88.9% (inactive)
Cc1ccc2c(n1)C(=O)C(Cl)=C(Nc1ccc(C)c(C)c1)C2=O : 87.6% (inactive)
CC(C)(C)Nc1nc2c(OCCc3ccccc3)cccn2c1-c1cccc(Oc2ccccc2)c1 : 43.5% (inactive)

Shift focus to the following entry.
Given the compound CCCCCCNC(=O)Oc1ccc(/C(=C(/C)c2ccc(OC)cc2)c2ccc(OCCN3CCCCCC3)cc2)cc1 , write its reported growth.
76.8% (inactive)
